Hey, just so you know, these numbers are from paper PMC4077652.

B1: unnamed (parent)
chain 1: QNSLSTEWSPCSVT
chain 2: not shown
chain 3: not shown

# Variants of: B1
# protocol description: binding inhibition (competition) assay with biotin-labeled HA 306-318
# experimental parameters: peptides tested at 0 to 100 µM, read off a plot
pIC50: −log10 of the molar value.
Given measured pIC50, output Condition met if it is greater than or equal to 6 and Condition not met if not.

Exercise: Kindly determine if pIC50 recorded for chain 1 V13A is above or exactly 6.
Solution: Condition met

Exercise: Kindly determine if pIC50 recorded for chain 1 N2A is above or exactly 6.
Solution: Condition not met

Exercise: Kindly determine if pIC50 recorded for chain 1 P10A is above or exactly 6.
Solution: Condition not met

Exercise: Kindly determine if pIC50 recorded for chain 1 E7A is above or exactly 6.
Solution: Condition not met
